Assay type: in vivo, human
Conditions: both, human, plasma, oral, AUC(0–inf), eluxadoline 100 mg plus probenecid 500 mg; arithmetic mean (CV); n = 20
measuredParameter: AUC(0-inf)

-- ask For COc1ccc(CN(C(=O)[C@@H](N)Cc2c(C)cc(C(N)=O)cc2C)[C@@H](C)c2ncc(-c3ccccc3)[nH]2)cc1C(=O)O , what is its reported AUC(0-inf)?
-- reply 23 ng·h/mL

---

Format: in vivo, human
Conditions: both, human, plasma, oral, AUC(0–inf), Geometric LS Means, Treatment B (+ cyclosporine 600 mg); only subjects with estimable elimination rates for all 3 treatments (N 7)
measuredParameter: AUC(0-inf) (ng·h/mL)
The response must be a number in ng·h/mL with no trailing unit.

-- ask For COc1ccc(CN(C(=O)[C@@H](N)Cc2c(C)cc(C(N)=O)cc2C)[C@@H](C)c2ncc(-c3ccccc3)[nH]2)cc1C(=O)O , what is its reported AUC(0-inf)?
-- reply 79.9
